Test system: Staph. aureus
test-summary: Agar dilution MIC, Staph. aureus
Assay type: cell-based
condition-context: Staphylococcus aureus, Table I, strain S13E
reported-endpoint: MIC (µg/mL)
Number only, in µg/mL; omit the unit.

compound	display-unit	MIC
CC1=C(C(=O)O)N2C(=O)[C@@H](NC(=O)[C@H](N)c3ccccc3)[C@H]2SC1 [Cephalexin, reference compound]	µg/mL	128

Enquiry: Missing value: MIC, Staph. aureus, entry N[C@@H](C(=O)NC1C(=O)N2C(C(=O)O)=CCSC12)c1ccc2ccccc2c1 (stereo partly shown) [Example 12] . Fill in?
Return: 64

Enquiry: Param readout = MIC; param system = Staph. aureus; param query = COC1=C(C(=O)O)N2C(=O)C(NC(=O)C(N)c3ccc4ccccc4c3)C2SC1 (racemic) [Example 6] ; response: value
Return: 32

Enquiry: Lab note: need MIC for COc1ccc2cc([C@@H](N)C(=O)NC3C(=O)N4C(C(=O)O)=C(C)CSC34)ccc2c1 (stereo partly shown) [Example 10] on Staph. aureus, anyone have it?
Return: 16
